system: A549-GM130-SQSTM1; test: lowest phenotypically active concentration; higher = less potent; conditions: treatment time: 24 h
Where a name gives a salt, the structure may show the parent alone.
Quantity Name: lowest phenotypically active concentration

[[record]]
compound = "O=C(NCc1cccc(O)c1)Nc1nc(-c2ccncc2)cs1 [RKI 1447 dihydrochloride]"
reported = "≤ 0.3 µM"

[[record]]
compound = "COc1ccc(CCNCc2ccc(OCc3ccc(Cl)nc3)c(OC)c2)cc1OC [SBE 13 hydrochloride]"
reported = "9 µM"

[[record]]
compound = "CCOC(=O)Nc1cc(-c2ccc(C)c(NS(C)(=O)=O)c2)nn2c(C)nnc12"
reported = "1 µM"

[[record]]
compound = "Cc1cc(CS(=O)(=O)c2ccccc2)cc(OCc2ccc(CN3CCC[C@@H]3CO)cc2)c1 [PF 543 hydrochloride]"
reported = "9 µM"

[[record]]
compound = "CN1CCN(c2ccc(OC(F)(F)F)c(Nc3ncc4c(n3)-c3c(c(C(N)=O)nn3CCO)CC4)c2)CC1"
reported = "≤ 0.3 µM"

[[record]]
compound = "O=C(CCCc1ccc(-c2ccccc2F)cc1)Nc1ccc(O)cc1"
reported = "1 µM"

[[record]]
compound = "CC(C)c1cc(-c2n[nH]c(=O)n2-c2ccc3c(ccn3C)c2)c(O)cc1O"
reported = "≤ 0.3 µM"

[[record]]
compound = "Fc1ccc([C@@H]2CCNC[C@H]2COc2ccc3c(c2)OCO3)cc1"
reported = "3 µM"

[[record]]
compound = "COc1ccc(C[C@H](N)C(=O)N[C@H]2[C@@H](O)[C@H](n3cnc4c(N(C)C)ncnc43)O[C@@H]2CO)cc1 [Puromycin dihydrochloride]"
reported = "1 µM"

[[record]]
compound = "Oc1cccc(-c2nc(N3CCOCC3)c3oc4ncccc4c3n2)c1 [PI 103 hydrochloride]"
reported = "≤ 0.3 µM"

[[record]]
compound = "O=C(Nc1cccc(Cl)c1)Nc1ncc(CCNc2ncnc3ccsc23)s1 [SNS 314 mesylate]"
reported = "≤ 0.3 µM"

